The measured values listed here are drawn from the supplement of paper PMC10567573.

B1: GNB5 (parent)
chain: YYPSGDAFASGSDDATCRLYDLRA

Variants of: B1
Experiment: protein stability index of a GFP-peptide fusion (GPS, HEK-293T) (PSI 1-6); higher = more stable;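 further: lentivirally expressed fusions sorted by FACS into six bins by GFP to DsRed ratio, PSI derived from sequencing read proportions per bin multiplied by bin number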
Settings: c terminus: a fixed tail appended
Can you tell me protein stability index for the items I'm about to list?
One number for each entry.

- sequenceChange: "A7G"
  quantityMeasured: "protein stability index"
  measuredResult: 3.47
- sequenceChange: "S10P"
  quantityMeasured: "protein stability index"
  measuredResult: 2.46
- sequenceChange: "G11S"
  quantityMeasured: "protein stability index"
  measuredResult: 2.08
- sequenceChange: "D21Q"
  quantityMeasured: "protein stability index"
  measuredResult: 2.3
- sequenceChange: "Y1F"
  quantityMeasured: "protein stability index"
  measuredResult: 2.65

Would you be so kind as to report protein stability index for each listed record?
1. D21M
2. L19F
3. S12T
4. T16W
5. C17K
6. A24I

1: 2.23; 2: 2.33; 3: 2.79; 4: 1.91; 5: 2.69; 6: 1.9
